Attribution: ChEMBL document CHEMBL4138252

# measured-target: Histone deacetylase
# assay-overview: Inhibition of HDAC in human HeLa nuclear extract using Fluor de Lys as substrate by fluorimetric method
# Format: protein assay

- item-smiles: "Cl.NCCCNCCNCCCN1C(=O)c2ccc3c4c(ccc(c24)C1=O)C(=O)N(CCCCCC(=O)NO)C3=O"
  IC50, nM: 550
- item-smiles: "Cl.NCCCNCCCCNCCCN1C(=O)c2ccc3c4c(ccc(c24)C1=O)C(=O)N(CCCCCC(=O)NO)C3=O"
  IC50, nM: 520
- item-smiles: "Cl.NCCCNCCCNCCCN1C(=O)c2ccc3c4c(ccc(c24)C1=O)C(=O)N(CCCCCC(=O)NO)C3=O"
  IC50, nM: 370
- item-smiles: "Cl.NCCCNCCCN1C(=O)c2ccc3c4c(ccc(c24)C1=O)C(=O)N(CCCCCC(=O)NO)C3=O"
  IC50, nM: 410
- item-smiles: "Cl.NCCCCNCCCCNCCCN1C(=O)c2ccc3c4c(ccc(c24)C1=O)C(=O)N(CCCCCC(=O)NO)C3=O"
  IC50, nM: 560

* * *

compounds and their reported ΔTm
# Test system: Quadruplex DNA
# assay-overview: Stabilization of 3'-6FAM/5'-Dabcyl-labelled human telomeric 22 G-quadruplex DNA assessed as change in melting temperature at 2.5 uM by fluorescence assay
# Type: nucleic-acid assay

- item-smiles: "CN(C)c1ccc(Nc2c3ccc(NC(=O)CCN4CCCC4)cc3nc3cc(NC(=O)CCN4CCCC4)ccc23)cc1"
  ΔTm: "28.3 °C"
- item-smiles: "Cl.NCCCNCCCCNCCCN1C(=O)c2ccc3c4c(ccc(c24)C1=O)C(=O)N(CCCCCC(=O)NO)C3=O"
  ΔTm: "10.9 °C"
- item-smiles: "O=C(CCCCCN1C(=O)c2cccc3cccc(c23)C1=O)NO"
  ΔTm: "0.1 °C"
- item-smiles: "Cl.NCCCNCCNCCCN1C(=O)c2ccc3c4c(ccc(c24)C1=O)C(=O)N(CCCCCC(=O)NO)C3=O"
  ΔTm: "7.8 °C"
